- TGT: T1, rat MASP-2cf CCP1-CCP2-SP (rat, UniProt Q9JJS8 298-685)
- T1 construct: range 298-685; Mw 42309 Da; also called rat MASP-2 catalytic fragment
- TEST_PROTOCOL: SPR, target immobilised
pKd: −log10 of the molar value. Where no end group is shown, it is not given here.

BINDER: EVO213 (designed binder, Modified TFPI-D2 Kunitz domain; made as m1) KPDFCFLENDPGPCRAAKRRYFYNNQTKQCERFGYGGCLGNMNNFVTLEECKNICEDG
pKd: 8.42
--
BINDER: EVO24 (designed binder, not fully specified; cysteine pairing not given here, Modified TFPI-D2 Kunitz domain; made as m1) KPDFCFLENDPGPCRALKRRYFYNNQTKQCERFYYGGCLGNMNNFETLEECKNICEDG
pKd: 9.54
--
BINDER: EVO22 (designed binder, not fully specified; cysteine pairing not given here, Modified TFPI-D2 Kunitz domain; made as m1) KPDFCFLENDPGPCRALKRRYFYNNQTKQCERFYYGGCLGNMNNFVTLEECKNICEDG
pKd: 9.64
--
BINDER: EVO224 (designed binder, not fully specified; cysteine pairing not given here, Modified TFPI-D2 Kunitz domain; made as m1) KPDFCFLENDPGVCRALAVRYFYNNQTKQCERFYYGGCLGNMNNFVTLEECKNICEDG
pKd: 9.66
--
BINDER: EVO223 (designed binder, Modified TFPI-D2 Kunitz domain; made as m1) KPDFCFLENDPGPCRAAAVRYFYNNQTKQCERFYYGGCLGNMNNFVTLEECKNICEDG
pKd: 9.97
